Consider the following compounds; for each one, report its Corticosterone secretion M.E.D..
molecular target: 5-HT1A receptors (Rattus norvegicus); test: Corticosterone secretion (CS), plasma, agonist and antagonist activity; type: in vivo, male Wistar rats; set-up: from tissue; host or cells: whole animal, male Wistar rat (in vivo); details: agonist: induction of CS; s.c.; minimum effective dose
Sequence (P19327 whole entry): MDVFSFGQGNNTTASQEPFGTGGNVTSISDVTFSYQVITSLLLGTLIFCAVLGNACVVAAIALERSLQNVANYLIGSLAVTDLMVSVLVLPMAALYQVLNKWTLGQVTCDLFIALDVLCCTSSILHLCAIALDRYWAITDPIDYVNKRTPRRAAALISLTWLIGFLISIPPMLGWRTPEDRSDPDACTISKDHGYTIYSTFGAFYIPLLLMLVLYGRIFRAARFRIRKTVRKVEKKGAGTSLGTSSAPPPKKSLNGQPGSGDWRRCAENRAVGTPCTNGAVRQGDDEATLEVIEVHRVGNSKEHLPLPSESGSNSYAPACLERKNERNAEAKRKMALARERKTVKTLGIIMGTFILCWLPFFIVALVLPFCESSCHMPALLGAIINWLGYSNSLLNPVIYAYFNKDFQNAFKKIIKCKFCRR

# count of solved cases: 6
compound	tested_on	Corticosterone secretion M.E.D.
c1ccc2c(c1)CCC2CCCN1CCN(c2cccc3c2OCCO3)CC1 (racemic) [Example 23]	5-HT1A receptors (Rattus norvegicus)	> 2.5 mg/kg
c1ccc2c(c1)CC(CCN1CCN(c3cccc4c3OCCO4)CC1)C2 [Example 20]	5-HT1A receptors (Rattus norvegicus)	> 2.5 mg/kg
c1ccc2c(c1)CC(CN1CCN(c3cccc4c3OCCO4)CC1)C2 [Example 14]	5-HT1A receptors (Rattus norvegicus)	> 2.5 mg/kg
c1ccc2c(c1)CC2CCN1CCN(c2cccc3c2OCCO3)CC1 (racemic) [Example 2]	5-HT1A receptors (Rattus norvegicus)	10.0 mg/kg
c1ccc2c(c1)CC2CCCN1CCN(c2cccc3c2OCCO3)CC1 (racemic) [Example 13]	5-HT1A receptors (Rattus norvegicus)	10.0 mg/kg
c1ccc2c(c1)CC2CCN1CCN(c2cccc3c2OCCCO3)CC1 (racemic) [Example 3]	5-HT1A receptors (Rattus norvegicus)	> 10.0 mg/kg

# input I am curious: what Corticosterone secretion M.E.D. value has been reported for c1ccc2c(c1)CCC2CCN1CCN(c2cccc3c2OCCO3)CC1 (racemic) [Example 22] ?
# output > 10.0 mg/kg
